target: T1, monomeric human PRLR (hPRLR.mmh; SEQ ID NO:401) (Homo sapiens, UniProt P16471); experiment: Surface plasmon resonance (Biacore T200), antibody-capture format; type: binding; settings: 37° C., analyte hPRLR.mmh
T1 construct: soluble monomeric (hPRLR.mmh); mmh (myc-myc-hexahistidine) (C)
T1 sequence (P16471 with tags, fused parts or gaps): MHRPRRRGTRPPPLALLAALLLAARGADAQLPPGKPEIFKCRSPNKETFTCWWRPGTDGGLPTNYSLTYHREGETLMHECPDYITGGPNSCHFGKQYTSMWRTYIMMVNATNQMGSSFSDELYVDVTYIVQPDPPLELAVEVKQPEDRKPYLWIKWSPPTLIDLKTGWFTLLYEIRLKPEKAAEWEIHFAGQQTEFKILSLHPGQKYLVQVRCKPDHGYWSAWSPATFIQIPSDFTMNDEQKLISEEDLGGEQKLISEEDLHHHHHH
test-readout: kd

Solved cases (3 shown):
molecule	kd
H1H6762P: fully human anti-PRLR antibody, human IgG1 Fc; HCVR/LCVR SEQ ID NOs 2/10 (antibody, V domains shown) VH: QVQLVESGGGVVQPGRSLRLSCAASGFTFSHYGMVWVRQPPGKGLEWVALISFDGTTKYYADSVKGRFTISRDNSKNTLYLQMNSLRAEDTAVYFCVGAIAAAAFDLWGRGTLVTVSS VL: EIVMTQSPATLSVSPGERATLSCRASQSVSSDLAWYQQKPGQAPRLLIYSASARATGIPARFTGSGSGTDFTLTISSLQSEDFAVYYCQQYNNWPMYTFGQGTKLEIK	0.000455 s⁻¹
H1H6790P: fully human anti-PRLR antibody, human IgG1 Fc; HCVR/LCVR SEQ ID NOs 114/122 (antibody, V domains shown) VH: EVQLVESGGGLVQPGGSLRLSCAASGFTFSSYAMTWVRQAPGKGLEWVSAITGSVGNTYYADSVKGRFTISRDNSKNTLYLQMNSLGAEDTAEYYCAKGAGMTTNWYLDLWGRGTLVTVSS VL: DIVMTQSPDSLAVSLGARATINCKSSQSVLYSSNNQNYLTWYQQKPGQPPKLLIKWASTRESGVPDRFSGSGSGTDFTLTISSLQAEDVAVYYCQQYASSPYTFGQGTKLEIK	0.00329 s⁻¹
H1H6797P: fully human anti-PRLR antibody, human IgG1 Fc; HCVR/LCVR SEQ ID NOs 178/186 (antibody, V domains shown) VH: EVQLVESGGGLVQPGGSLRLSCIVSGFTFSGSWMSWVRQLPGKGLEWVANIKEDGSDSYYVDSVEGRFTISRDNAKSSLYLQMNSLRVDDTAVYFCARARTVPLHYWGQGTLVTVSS VL: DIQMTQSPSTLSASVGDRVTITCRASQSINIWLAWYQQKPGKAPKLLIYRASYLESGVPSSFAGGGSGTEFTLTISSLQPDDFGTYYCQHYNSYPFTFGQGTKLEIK	0.00822 s⁻¹

In the following, a different molecule is considered.
In: Any idea what its kd is? The molecule is H1H6953N: anti-PRLR antibody, human IgG1 Fc form of H1M6953N of Table 1; HCVR/LCVR SEQ ID NOs 274/282 (antibody, V domains shown) VH: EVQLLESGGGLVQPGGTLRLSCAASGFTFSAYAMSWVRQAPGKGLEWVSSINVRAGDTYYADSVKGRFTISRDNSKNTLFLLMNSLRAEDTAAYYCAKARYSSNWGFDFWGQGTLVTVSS VL: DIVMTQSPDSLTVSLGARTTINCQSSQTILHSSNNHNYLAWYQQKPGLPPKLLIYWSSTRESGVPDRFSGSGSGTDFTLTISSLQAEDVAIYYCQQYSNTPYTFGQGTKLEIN
Out: 0.00122 s⁻¹
